Catalogue of Percent Effect readings, one per entry.
- experimental target: AMP-activated protein kinase, AMPK (Homo sapiens) (UniProt P54646+O43741+P54619+Q9UGJ0+Q9Y478+Q13131+Q9UGI9)
- assay details: AMP-dependent Kinase enzyme assay. An in vitro enzyme assay that detects ADP turnover that is directly proportional to AMPK activity. This uses naive AMPK that is activated during the assay with MK-8722
- Format: functional
- Design: scale not given: direction of the effect not stated beside the values
- conditions used: 30 µM
Answer in %, number only, no unit symbol.

Solved entries:
| molecule | Percent Effect, % |
| --- | --- |
| Cc1nc(Nc2ncccn2)cc(C2CCCN2CC(C)C)n1 (stereo not drawn) | 4.6 |
| CCc1n[nH]c(C2CN(Cc3nnc(C4CC4)n3C)CCO2)n1 (stereo not drawn) | -9.24 |

Attention now turns to another entry.
Please give the documented Percent Effect of `COCCN(C)Cc1ccc(OC)c(OC(F)F)c1`
2.88
